# credit: the supplement of paper PMC10567573

B1: GLTSCR2 (parent)
chain: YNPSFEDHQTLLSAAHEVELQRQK

variants of: B1; test: protein stability index of a GFP-peptide fusion (GPS, HEK-293T) (PSI 1-6); higher = more stable; conditions: c terminus: a fixed tail appended;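 further: lentivirally expressed fusions sorted by FACS into six bins by GFP to DsRed ratio, PSI derived from sequencing read proportions per bin multiplied by bin number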
# if value of protein stability index reaches 4, tag fulfilled; if it stays below, tag not fulfilled

- chain: "YNPSAEDHQTLLSAAHEVELQRQK"
  class_label: "fulfilled"

Task item: Check the entry "YNPSFEDTQTLLSAAHEVELQRQK" : does protein stability index equal or exceed 4?
Reply: not fulfilled

Task item: Item "YNPSFEDHQTLLSAAREVELQRQK" with protein stability index of 4 or above?
Reply: not fulfilled

Task item: State whether the measured protein stability index reaches 4, counting equality as reaching it, for "YNPSFEDHQTLLSAAHEVELQRQW"
Reply: not fulfilled

Task item: Please tell me: is the variant "YNPSFEDHQTLLSAAHEVELQKQK" at or over 4 in terms of protein stability index?
Reply: fulfilled

Task item: Given the entry "YNPSFEDCQTLLSAAHEVELQRQK" , answer whether its protein stability index meets or surpasses 4.
Reply: not fulfilled

Task item: For this variant, is measured protein stability index 4 or higher? "YNPSFEDHQTLLSAAHEVELQGQK"
Reply: not fulfilled

Task item: Could you tell me if the measured protein stability index of "YNPSFEDHQTLLSAAHEVELQRLK" reaches 4 or more?
Reply: not fulfilled

Task item: Reported protein stability index reaches at least 4 for "ENPSFEDHQTLLSAAHEVELQRQK" ?
Reply: fulfilled

Task item: Hello, I need to know if "YNPSFEDHQTLWSAAHEVELQRQK" has measured protein stability index not below 4. Thanks!
Reply: not fulfilled

Task item: State whether the measured protein stability index reaches 4, counting equality as reaching it, for "YNPSFEDHQTLLSAAHEVELQRCK"
Reply: not fulfilled

Task item: Does the variant "YNPSFEDHQTLLSAADEVELQRQK" have recorded protein stability index that is 4 or more?
Reply: fulfilled
